Assay System: human SGLT2 (Homo sapiens, UniProt P31639)
Sequence (P31639 1-672): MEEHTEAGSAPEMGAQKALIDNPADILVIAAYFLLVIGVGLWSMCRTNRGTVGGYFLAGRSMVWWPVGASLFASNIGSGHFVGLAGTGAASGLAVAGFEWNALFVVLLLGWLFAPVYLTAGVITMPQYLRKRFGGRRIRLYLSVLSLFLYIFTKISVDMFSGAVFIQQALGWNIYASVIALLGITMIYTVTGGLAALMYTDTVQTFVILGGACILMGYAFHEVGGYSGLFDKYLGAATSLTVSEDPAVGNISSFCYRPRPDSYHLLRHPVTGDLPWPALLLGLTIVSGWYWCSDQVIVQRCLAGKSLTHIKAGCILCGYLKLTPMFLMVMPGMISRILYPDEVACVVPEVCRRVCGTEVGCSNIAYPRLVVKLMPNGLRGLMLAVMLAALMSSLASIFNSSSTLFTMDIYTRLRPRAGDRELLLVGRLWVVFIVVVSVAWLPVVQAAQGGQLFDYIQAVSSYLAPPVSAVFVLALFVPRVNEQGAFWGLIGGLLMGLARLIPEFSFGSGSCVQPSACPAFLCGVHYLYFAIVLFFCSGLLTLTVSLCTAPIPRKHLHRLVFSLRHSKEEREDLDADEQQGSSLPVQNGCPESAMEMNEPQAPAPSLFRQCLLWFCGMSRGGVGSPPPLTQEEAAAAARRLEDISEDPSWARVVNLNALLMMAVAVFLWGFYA
Assay Procedure: Cell-based assay for sodium-dependent glucose transport (14C-AMG uptake), CHOK-SGLT2
Experimental Context: CHO-K1 cells stably expressing human SGLT2; Na-dependent 14C-AMG uptake
Reported Endpoint: IC50 (nM)

>>> observed_result("COc1ccc(Cc2c[nH]c3cccc(O[C@@H]4O[C@H](CO)[C@@H](O)[C@H](O)[C@H]4O)c23)cc1F")
202

P = CCCCCC(=O)OC[C@H]1O[C@@H](Oc2cccc3[nH]cc(Cc4ccc(CC)cc4)c23)[C@H](O)[C@@H](O)[C@@H]1O
Q = OC[C@H]1O[C@@H](Oc2cccc3[nH]cc(Cc4ccc(Oc5ccccc5)cc4)c23)[C@H](O)[C@@H](O)[C@@H]1O
Query block: From the recorded data, which exceeds the other in IC50: P or Q ? Write down the label attached to your selection.
Result block: Q

###

Assay System: UniProt P13866
Sequence (P13866 1-664): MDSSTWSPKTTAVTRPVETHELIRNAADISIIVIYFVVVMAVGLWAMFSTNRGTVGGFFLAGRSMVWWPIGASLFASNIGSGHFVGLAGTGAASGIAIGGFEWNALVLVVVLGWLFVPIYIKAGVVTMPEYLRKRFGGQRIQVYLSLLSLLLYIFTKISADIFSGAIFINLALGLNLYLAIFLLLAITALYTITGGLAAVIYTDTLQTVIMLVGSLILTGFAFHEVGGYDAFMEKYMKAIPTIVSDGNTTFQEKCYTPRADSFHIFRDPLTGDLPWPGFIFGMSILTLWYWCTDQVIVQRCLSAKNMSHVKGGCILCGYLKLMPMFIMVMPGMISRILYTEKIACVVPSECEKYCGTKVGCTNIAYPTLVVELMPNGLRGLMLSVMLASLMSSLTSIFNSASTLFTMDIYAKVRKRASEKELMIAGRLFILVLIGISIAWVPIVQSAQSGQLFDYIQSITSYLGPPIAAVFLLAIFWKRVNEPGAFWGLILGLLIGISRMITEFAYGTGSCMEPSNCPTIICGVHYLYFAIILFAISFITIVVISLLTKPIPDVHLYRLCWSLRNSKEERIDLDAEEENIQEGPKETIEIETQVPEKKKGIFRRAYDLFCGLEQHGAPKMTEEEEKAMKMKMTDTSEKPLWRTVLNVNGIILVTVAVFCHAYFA
Assay Procedure: Cell-based assay for sodium-dependent glucose transport (14C-AMG uptake), CHOK-SGLT1
Experimental Context: CHO-K1 cells stably expressing human SGLT1; Na-dependent 14C-AMG uptake
Reported Endpoint: IC50 (µM)

Use the examples below as a reference point.
>>> observed_result("Cn1cc(CCc2ccc3c(c2)CCO3)c2c(O[C@@H]3O[C@H](CO)[C@@H](O)[C@H](O)[C@H]3O)cccc21")
0.195
>>> observed_result("OC[C@H]1O[C@@H](Oc2cccc3[nH]cc(Cc4ccc(-c5ccsc5)cc4)c23)[C@H](O)[C@@H](O)[C@@H]1O")
1.89
>>> observed_result("OC[C@H]1O[C@@H](Oc2cccc3[nH]cc(CCc4ccc5c(c4)OCCO5)c23)[C@H](O)[C@@H](O)[C@@H]1O")
3.38
>>> observed_result("COc1ccc(Cc2c[nH]c3cccc(O[C@@H]4O[C@H](CO)[C@@H](O)[C@H](O)[C@H]4O)c23)cc1")
1.12
>>> observed_result("CCOc1ccc(CCc2c[nH]c3cccc(O[C@@H]4O[C@H](CO)[C@@H](O)[C@H](O)[C@H]4O)c23)cc1")
1.34

P = Cc1ccc(Cc2c[nH]c3cccc(O[C@@H]4O[C@H](CO)[C@@H](O)[C@H](O)[C@H]4O)c23)cc1
Q = CCc1ccc(Cc2c[nH]c3cccc(O[C@@H]4O[C@H](CO)[C@@H](O)[C@H](O)[C@H]4O)c23)cc1
Query block: From the recorded data, which exceeds the other in IC50: P or Q ? Write down the label attached to your selection.
Result block: P
(P: 3.88 µM, Q: 1.81 µM)
